Test system: SK-MEL-2
Experiment: NCI tumour cell line growth inhibition, 48 h
The source made the active and inactive calls. No stated cut-off is given here; in the data, active = GI50 up to about 1.1 µM and inactive = higher.
ATTRIBUTE MEASURED: GI50

Would you please look over these solved cases?
COMPOUND: CCc1c(O)cc(=O)oc1-c1ccc(OC)c(OC)c1
MEASURED ON: SK-MEL-2
GI50: > 100 µM (inactive)

COMPOUND: CC(C)Oc1c(-c2c(OC(C)C)c(=O)c2=O)c(=O)c1=O
MEASURED ON: SK-MEL-2
GI50: > 56.9 µM (inactive)

COMPOUND: S=C1SSC2N=CC=CC12 (centres undefined)
MEASURED ON: SK-MEL-2
GI50: > 100 µM (inactive)

-- ask What value of GI50 has been recorded for this entry: COc1cc(Br)c(CC2NCCc3cc(OC)c(OC)cc32)cc1OC (centres undefined)
-- reply > 100 µM (inactive)

-- ask Also need CCOCC(=O)N[C@H]1CCc2cc(OC(=O)COCC)c(OC)c(OC)c2-c2ccc(SC)c(=O)cc21 , thanks.
-- reply 0.019 µM (active)

-- ask Also need c1cc2nnc1SCCSCCSCCSc1ccc(nn1)SCCSCCSCCS2 , thanks.
-- reply > 100 µM (inactive)

-- ask Also need COC(=O)C(Cc1ccc(OC)cc1O)NC(=O)OC(C)(C)C (centres undefined) , thanks.
-- reply > 100 µM (inactive)

-- ask Also need [N-]=[N+]=NC[C@H]1OCO[C@H](CN=[N+]=[N-])[C@H]2OCCOCCOc3ccccc3OCCOCCO[C@@H]21 , thanks.
-- reply > 100 µM (inactive)

-- ask Also need COC1(C)CC2N(C(=O)c3ccccc3)N=C(c3ccccc3)CC2(C)O1 (centres undefined) , thanks.
-- reply > 100 µM (inactive)

-- ask Also need O=CN/C=C/c1ccccc1O , thanks.
-- reply > 100 µM (inactive)

-- ask Also need C[C@@H]1CCC([C@@H](C)[C@H]2CC[C@H]3[C@@H]4CC[C@H]5C[C@@H](O)CC[C@]5(C)[C@H]4CC[C@]23C)=NC1 , thanks.
-- reply 14.1 µM (inactive)

-- ask Also need CCCC1(CC(=O)O)OCCc2c1[nH]c1ccccc21 (centres undefined) [PRODOLIC ACID] , thanks.
-- reply > 100 µM (inactive)

-- ask Also need CCN1C(=O)N2C(OC)c3ccccc3C(Br)C2(OC)C1=O (centres undefined) , thanks.
-- reply > 100 µM (inactive)

====

Test system: SN12C
Experiment: NCI tumour cell line growth inhibition, 48 h
The source made the active and inactive calls. Rule as the data show it: active = GI50 up to about 1.1 µM and inactive = higher.
Choose one outcome from this list and give only that: 1 (yes) (active), 0 (no) (inactive)

COMPOUND: CCCC1CCC(=C2C(=O)CCC2=O)O1 (stereo unspecified)
ASSIGNED CLASS: 0 (no)

COMPOUND: CCSC(=O)N1c2ccc(OC)cc2C=CC1C#N (stereo unspecified)
ASSIGNED CLASS: 1 (yes)

# ---- query compound ----
-- ask Assay result, entry COc1ccc(/C=C2\CN(C)Cc3c2nc(N)nc3-c2ccc(OC)cc2)cc1 — outcome?
-- reply 0 (no)

====

Tested on: CAKI-1
Assay: NCI tumour cell line growth inhibition, 48 h
The source made the active and inactive calls. Rule as the data show it: active = GI50 up to about 1.1 µM and inactive = higher.
ATTRIBUTE MEASURED: GI50

Would you please look over these solved cases?
COMPOUND: COc1ccc(C2C(C=O)C(N3CCN(C)CC3)=Nc3nc4ccccc4n32)cc1 (configuration not stated)
MEASURED ON: CAKI-1
ATTRIBUTE MEASURED: GI50
ASSAY RESULT: 19.1 µM (inactive)
//
COMPOUND: O=C(N/N=C/c1ccc(O)cc1)NNCCO
MEASURED ON: CAKI-1
ATTRIBUTE MEASURED: GI50
ASSAY RESULT: > 100 µM (inactive)
//
COMPOUND: CC(NNC(=O)c1cc[n+]([BH2-]C#N)cc1)c1cccc(F)c1 (configuration not stated)
MEASURED ON: CAKI-1
ATTRIBUTE MEASURED: GI50
ASSAY RESULT: > 100 µM (inactive)
//
COMPOUND: Cn1c2c3ccc(Cl)cc3nc-2c(Cl)c2ccccc21
MEASURED ON: CAKI-1
ATTRIBUTE MEASURED: GI50
ASSAY RESULT: 17.3 µM (inactive)
//
COMPOUND: C=CC[C@H]1O[Si](C(C)(C)C)(C(C)(C)C)[C@H](C)[C@H]1C
MEASURED ON: CAKI-1
ATTRIBUTE MEASURED: GI50
ASSAY RESULT: > 100 µM (inactive)

-- ask What value of GI50 has been recorded for this entry: Cc1cc(C)nc(Nc2nc3cc([N+](=O)[O-])ccc3[nH]2)n1
-- reply > 100 µM (inactive)

-- ask Also need O=C(c1ccccc1)c1c(-c2ccccc2)n(-c2ccccc2)[nH]c(=O)c1=O , thanks.
-- reply 37.6 µM (inactive)

Data credit: ChEMBL document CHEMBL1201862
